Assay: viability loss in A549 lung cancer cells – cell-based, plate reader, dry powder, set 2, dose response (AID 720713)
Settings: A549 cytotoxicity, plate reader; at 26 µM (top of the series)
I'd appreciate it if you could supply activity change, negative = cytotoxicity values for the items below.
Numbers only, in %.

Compound | activity change, negative = cytotoxicity / %
COc1cc(CN2CCc3ccccc3C2)ccc1O | -37.2

Report activity change, negative = cytotoxicity for each item below.
1. COc1ccc(Nc2nc(N3CCCCC3)c3ccccc3n2)cc1
2. COc1ccc2c(c1)c(CC(=O)Nc1cc(C)ccc1C)c(C)n2C(=O)c1ccc(Cl)cc1
3. CCCc1nnc(NC(=O)c2nc(S(=O)(=O)Cc3ccc(C)cc3)ncc2Cl)s1

Given back:
1. 5.38
2. -1.36
3. 8.63

Report activity change, negative = cytotoxicity for each item below.
1. O=c1c2ccccc2nc2n1C(CSCc1ccc(Cl)cc1Cl)CS2 (centres undefined)
2. CC(=O)N1CCN(C(=O)CCc2cc(C(C)(C)C)c(O)c(C(C)(C)C)c2)CC1
3. CCOC(=O)C1(Cc2ccc(Cl)cc2)CCN(C(C)Cc2ccc(O)c(OC)c2)CC1 (centres undefined)

Given back:
6.09
-4.62
1.75

* * *

Experiment: viability loss in A549 lung cancer cells – cell-based, plate reader, dry powder, set 2, dose response (AID 720713)
Conditions: A549 cytotoxicity, plate reader; at 26 µM (top of the series)
Measured metric: activity change, negative = cytotoxicity (%)
One number for each entry, in %.

Examples with answers:
Compound | Measured metric | Value measured
Cc1ccc2cc(CN(CC3CCCO3)C(=O)NC3CCCCC3)c(=O)[nH]c2c1C (configuration not stated) | activity change, negative = cytotoxicity | 106
CN(C)S(=O)(=O)c1cccc(NC(=O)c2cccc(S(=O)(=O)N3CCc4ccccc43)c2)c1 | activity change, negative = cytotoxicity | -0.758
COc1ccccc1N1CCN(c2ncc(C(=O)N3CCN(c4cccc(Cl)c4)CC3)c3ccccc23)CC1 | activity change, negative = cytotoxicity | 4.47
O=C(c1nnsc1S(=O)c1ccc(Cl)cc1)N1CCOCC1 (configuration not stated) | activity change, negative = cytotoxicity | -41.1
COc1cc2ncnc(N[C@H](C)c3ccccc3)c2cc1OC | activity change, negative = cytotoxicity | 10.2
Cc1cc(N2CCCC2=O)cc(C)c1S(=O)(=O)NCCOc1ccc(C(C)(C)C)cc1 | activity change, negative = cytotoxicity | 11
COc1ccc(NS(=O)(=O)c2ccc(C(=O)N3CCCCCC3)cc2)cc1 | activity change, negative = cytotoxicity | 22
Cc1cc2c(cc(C(=O)N3CCC(C(=O)NC4CCCC4)CC3)n2Cc2c(F)cccc2Cl)o1 | activity change, negative = cytotoxicity | -19.5
Nc1nonc1C(=O)NCCNCc1cc(Br)ccc1OCc1ccc(F)cc1 | activity change, negative = cytotoxicity | 4.85
CCOC(=O)c1ccc(NC(=O)Cn2ncc(Cl)c(Cl)c2=O)cc1 | activity change, negative = cytotoxicity | -6.56

Report activity change, negative = cytotoxicity for each item below.
1. CN(CC(=O)Nc1cccc(S(=O)(=O)N2CCOCC2)c1)CC(=O)Nc1ccc(Cl)c(C(F)(F)F)c1
2. CCOC(=O)C1CCN(C(=O)c2ccc(OCC(=O)Nc3cccc(C(F)(F)F)c3)c(OC)c2)CC1
3. CC(=O)Nc1cccc(NC(=O)CSc2ncc(-c3ccc(Cl)cc3)n2Cc2ccco2)c1

Given back:
1. 8.78
2. -17.5
3. 11.6

Report activity change, negative = cytotoxicity for each item below.
1. CC(C)(C)NC(=O)CSc1nc2ccc(NC(=O)CSc3nnnn3Cc3ccccc3)cc2s1
2. CC(C)[C@H](NC(=O)OC(C)(C)C)c1nnc(S(=O)(=O)Cc2c(F)cccc2Cl)o1
3. O=C1CSc2ccc(C(=O)Nc3cccc(S(=O)(=O)Nc4ccc(Br)cc4)c3)cc2N1
4. Fc1ccc(-n2nnnc2-c2cnc(-c3cccs3)nc2C(F)(F)F)cc1

Given back:
16.7
22.5
12
2.19
